// data source = patent US9090632B2

Biological target: human mGluR5 (Homo sapiens)
Sequence (P41594 21-1180 isoform P41594-2 limits assumed): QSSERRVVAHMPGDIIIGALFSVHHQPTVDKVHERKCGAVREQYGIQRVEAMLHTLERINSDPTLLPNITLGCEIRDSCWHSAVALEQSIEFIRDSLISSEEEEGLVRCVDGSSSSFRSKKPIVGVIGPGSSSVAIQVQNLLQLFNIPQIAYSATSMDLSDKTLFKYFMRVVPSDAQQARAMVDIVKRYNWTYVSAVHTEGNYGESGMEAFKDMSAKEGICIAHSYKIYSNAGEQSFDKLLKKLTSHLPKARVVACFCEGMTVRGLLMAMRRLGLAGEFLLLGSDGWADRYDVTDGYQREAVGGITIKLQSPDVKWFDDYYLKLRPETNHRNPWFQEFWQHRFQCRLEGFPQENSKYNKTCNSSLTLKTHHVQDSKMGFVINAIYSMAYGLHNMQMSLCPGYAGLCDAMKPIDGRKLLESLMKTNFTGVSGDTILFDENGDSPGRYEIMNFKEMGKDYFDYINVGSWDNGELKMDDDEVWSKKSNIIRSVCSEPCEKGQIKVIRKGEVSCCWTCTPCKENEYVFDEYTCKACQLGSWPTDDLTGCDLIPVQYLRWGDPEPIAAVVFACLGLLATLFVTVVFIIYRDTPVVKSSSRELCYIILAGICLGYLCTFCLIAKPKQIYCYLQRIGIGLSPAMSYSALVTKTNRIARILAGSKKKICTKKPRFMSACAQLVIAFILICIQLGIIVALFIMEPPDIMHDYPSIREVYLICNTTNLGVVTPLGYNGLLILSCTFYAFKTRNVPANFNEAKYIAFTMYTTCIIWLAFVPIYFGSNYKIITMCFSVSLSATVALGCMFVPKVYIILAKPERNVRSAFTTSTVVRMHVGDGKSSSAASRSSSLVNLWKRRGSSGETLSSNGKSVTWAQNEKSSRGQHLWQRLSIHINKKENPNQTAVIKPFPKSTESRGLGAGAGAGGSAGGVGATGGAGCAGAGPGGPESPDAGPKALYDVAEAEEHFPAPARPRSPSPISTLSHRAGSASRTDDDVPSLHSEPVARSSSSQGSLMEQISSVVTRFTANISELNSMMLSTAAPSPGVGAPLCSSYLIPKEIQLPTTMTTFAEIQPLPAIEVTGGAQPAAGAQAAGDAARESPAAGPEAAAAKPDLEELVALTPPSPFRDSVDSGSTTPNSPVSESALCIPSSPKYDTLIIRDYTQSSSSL
Test: Cell-based functional Ca2+ mobilization assay, potentiation of glutamate EC20 response (H10H cell-line)
Details: H10H cell-line expressing recombinant human mGluR5; potentiation in presence of glutamate EC20
READOUT_KIND: pEC50

Cn1ccc(Cl)c1C(=O)N1CCc2nc(COc3ccccc3)oc2C1 : 6.58
O=C(C1CCc2cc(F)ccc2O1)N1CCc2nc(COc3ccccc3)oc2C1 (stereo not shown) : 5.7
O=C(OCc1ccccc1)N1CCc2nc(COc3ccccc3)oc2C1 : 5.82
O=C(c1n[nH]c2ccncc12)N1CCc2nc(COc3ccccc3)oc2C1 : 5.85
O=C(c1ccc(F)c(F)c1)N1CCc2nc(COc3cccc(F)c3)oc2C1 : 6.62
O=C(c1ccc(F)cn1)N1CCc2nc(COc3cccc(F)c3)oc2C1 : 5.51
N#Cc1cc(F)cc(C(=O)N2CCc3nc(COc4ccccc4)oc3C2)c1 : 6.43
O=C(c1ccc(F)cc1)N1CCc2nc(COc3ccc(F)c(F)c3)oc2C1 : 6.19
O=C(N1CCc2nc(COc3ccccc3)oc2C1)C1(c2ccccc2)CC1 : 6.00
O=C(c1ccc(F)cc1F)N1CCc2nc(COc3ccccc3)sc2C1 : 6.06
Cc1ccc(C(=O)N2CCc3nc(COc4ccccc4)oc3C2)s1 : 6.70
O=C(c1ccc(F)c(F)c1)N1CCc2nc(COc3ccccc3)oc2C1 : 6.60
Cc1ccc(C(=O)N2CCc3nc(COc4ccccc4)oc3C2)n1C : 6.44
CC(C)(C)OC(=O)NC(C(=O)N1CCc2nc(COc3ccccc3)oc2C1)C(C)(C)C (stereo not shown) : 5.77
O=C(c1cccc(F)c1F)N1CCc2nc(COc3cccc(F)c3)oc2C1 : 6.24
N#Cc1cc(C(=O)N2CCc3nc(COc4ccccc4)oc3C2)ccn1 : 5.89
O=C(c1ccc(F)cc1)N1CCc2nc(COc3ccncc3)oc2C1 : 5.78
